- TEST PROTOCOL: AUC (0 to infinity) in CD-1 mouse at 15 mg/kg, po measured upto 24 hrs by LC-MS/MS analysis
- Type: ADME, organism-based
- CONDITION: in vivo
I'd appreciate it if you could supply AUC(0-inf) values for the items below.
Kindly answer with a numeric value in µg·h/mL, unit omitted.

Summary for this compound, `O=C1c2c(O)c(=O)ccn2N([C@@H]2c3ccccc3OCc3c(Cl)cccc32)[C@@H]2COCCN12` : AUC(0-inf) is 1.68

Quick note, AUC(0-inf) for `O=C1c2c(O)c(=O)ccn2N([C@H]2c3ccc(F)cc3COc3ccccc32)[C@@H]2COCCN12` landed at 2.79

###

- TEST PROTOCOL: Cytotoxicity against dog MDCK cells assessed as reduction in cell viability incubated for 2 days by CCK-8 assay
- Format: toxicity, cell-based, Canis lupus familiaris
- CONDITION: time 2 day
So I've got a bunch of compounds here, and I need their CC50 at 48 h values.
// note: answer is a bare numeric in µM

The reported CC50 at 48 h of the compound `O=C1c2c(O)c(=O)ccn2N([C@H]2c3ccccc3OCc3c2ccc(F)c3F)[C@@H]2COCCN12` was 33

Reported CC50 at 48 h for `O=C1c2c(O)c(=O)ccn2N([C@@H]2c3ccc(F)cc3COc3ccccc32)[C@@H]2COCCN12` was 35.2

###

- TEST PROTOCOL: Metabolic stability in human liver microsomes assessed as half life at 1 uM in presence of NADPH by LC-MS/MS analysis
- Format: ADME, Microsome
- CONDITION: time 60 min
Please provide measured half-life at 1 µM for the entries that follow.
Kindly provide the numeric value in h only, without the unit symbol.

half-life at 1 µM measured on `O=C(O)Cc1ccccc1Nc1c(Cl)cccc1Cl` = 0.0938

Briefly, half-life at 1 µM measured for `O=C1c2c(O)c(=O)ccn2N([C@@H]2c3ccccc3OCc3c(Cl)cccc32)[C@@H]2COCCN12` : 2.57

Briefly, half-life at 1 µM measured for `O=C1c2c(O)c(=O)ccn2N([C@@H]2c3ccccc3SCc3c2ccc(F)c3F)[C@@H]2COCCN12` : 3.03

The reported half-life at 1 µM of the compound `O=C1c2c(O)c(=O)ccn2N([C@H]2c3ccc(F)cc3COc3ccccc32)[C@@H]2COCCN12` was 11.6

###

- TEST PROTOCOL: Oral bioavailability in CD-1 mouse at 15 mg/kg measured upto 24 hrs by LC-MS/MS analysis
- Format: ADME, organism-based
- CONDITION: in vivo
MEASURED METRIC: bioavailability (%)
The figure you give is taken to be in %; do not add the unit.

The compound listed as `O=C1c2c(O)c(=O)ccn2N([C@@H]2c3ccccc3OCc3c(Cl)cccc32)[C@@H]2COCCN12` has a reported bioavailability of 31.5

Noted for `O=C1c2c(O)c(=O)ccn2N([C@H]2c3ccc(F)cc3COc3ccccc32)[C@@H]2COCCN12` : its bioavailability reads 54.3

###

- TEST PROTOCOL: Metabolic stability in mouse liver microsomes assessed as intrinsic clearance at 1 uM incubated for 60 mins in presence of NADPH by LC-MS/MS analysis
- Format: ADME, Microsome
- CONDITION: 1 h
For each entry below, report its CLint value.
Write the answer as a number in µL/min/mg, unit excluded.

Kindly note the recorded CLint for `O=C1c2c(O)c(=O)ccn2N([C@@H]2c3ccccc3OCc3c(Cl)cccc32)[C@@H]2COCCN12` , which is 10.2

Input `O=C(O)Cc1ccccc1Nc1c(Cl)cccc1Cl` . Output CLint: 34.4

Form: compound = `O=C1c2c(O)c(=O)ccn2N([C@@H]2c3ccccc3SCc3c2ccc(F)c3F)[C@@H]2COCCN12` ; CLint = 8.6

For reference, reported CLint for `O=C1c2c(O)c(=O)ccn2N([C@H]2c3ccc(F)cc3COc3ccccc32)[C@@H]2COCCN12` stands at 9.4
